# System: NCI-H460 lung
# method.description: NCI-60 one-dose screen, 48 h
# condition.notes: 10 µM unless noted
About 83,000 compounds went through this panel and 20% of them were active in at least one assay; those are over-represented in the sample as a whole. Active and inactive are the calls of the source. Rule for the calls: active = growth percent below 10; inactive = the rest.
Outcomes: y for active, n for inactive

[[record]]
compound = "N[C@@H]1CCC[C@H]1NCCCCN1C(=O)c2cccc3cccc(c23)C1=O"
answer_label = "n"

[[record]]
compound = "Cn1cc(-c2ccc3nc(-c4ccc(CC(=O)Nc5cc(C(C)(C)C)no5)cc4)cnc3c2)cn1"
answer_label = "n"

[[record]]
compound = "CCCCCOC(=O)c1cccc(NC(=O)CN(CC)CC)c1"
answer_label = "n"

[[record]]
compound = "CSc1ncc(C)c(Nc2ccc(Cl)cc2)n1"
answer_label = "n"

[[record]]
compound = "Cn1nnnc1-c1ccc(N)cc1"
answer_label = "n"

[[record]]
compound = "CCOC(=O)c1c(C)nc2c(c1N)/C(=C/c1ccc(OC)cc1)C(=O)N2Cc1ccc(F)cc1"
answer_label = "y"

[[record]]
compound = "Clc1cnc(Nc2ccc(OCCN3CCCC3)cc2)nc1NCc1ccco1"
answer_label = "y"

[[record]]
compound = "N#Cc1c(-c2ccccc2)nc(SCC2CO2)nc1N1CCOCC1 (centres undefined)"
answer_label = "n"

[[record]]
compound = "O=C1Nc2ccccc2SC1c1ccccc1Cl (centres undefined)"
answer_label = "n"

